# assayed-system: T1, human CD74 (human, UniProt P04233 1-296)
# T1 sequence (looked up): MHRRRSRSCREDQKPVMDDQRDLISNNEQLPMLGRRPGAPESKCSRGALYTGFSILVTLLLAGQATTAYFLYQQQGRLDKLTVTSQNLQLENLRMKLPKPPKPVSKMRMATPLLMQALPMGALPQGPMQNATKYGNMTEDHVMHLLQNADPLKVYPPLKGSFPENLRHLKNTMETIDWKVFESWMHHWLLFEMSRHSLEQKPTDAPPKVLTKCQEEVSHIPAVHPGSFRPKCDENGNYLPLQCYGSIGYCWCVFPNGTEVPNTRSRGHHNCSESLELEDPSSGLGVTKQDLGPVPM
# test-protocol: cell-based or functional assay
Each entry below carries its recorded EC50, GILZ mRNA, SUDHL-6 cells.
Form entry: value (µg/mL) — number only.

{"binder": "ADC 12-7 (anti-hCD74 (LL1) conjugated to Linker 4-3) (antibody, human IgG1, kappa, V domains shown, position 121 is para-azido phenylalanine (pAzF), conjugated to dexamethasone drug-linker 4-3) VH: QVQLQQSGSELKKPGASVKVSCKASGYTFTNYGVNWIKQAPGQGLQWMGWINPNTGEPTFDDDFKGRFAFSLDTSVSTAYLQISSLKADDTAVYFCSRSRGKNEAWFAYWGQGSLVTVSS VL: DIQLTQSPLSLPVTLGQPASISCRSSQSLVHRNGNTYLHWFQQRPGQSPRLLIYTVSNRFSGVPDRFSGSGSGTDFTLKISRVEAEDVGVYFCSQSSHVPPTFGAGTRLEIKR", "units-text": "µg/mL", "EC50, GILZ mRNA, SUDHL-6 cells": 14.3}

Prompt line: Item ADC 12-6 (anti-hCD74 (LL1) conjugated to Linker 3-4) (antibody, human IgG1, kappa, V domains shown, position 121 is para-azido phenylalanine (pAzF), conjugated to dexamethasone drug-linker 3-4) VH: QVQLQQSGSELKKPGASVKVSCKASGYTFTNYGVNWIKQAPGQGLQWMGWINPNTGEPTFDDDFKGRFAFSLDTSVSTAYLQISSLKADDTAVYFCSRSRGKNEAWFAYWGQGSLVTVSS VL: DIQLTQSPLSLPVTLGQPASISCRSSQSLVHRNGNTYLHWFQQRPGQSPRLLIYTVSNRFSGVPDRFSGSGSGTDFTLKISRVEAEDVGVYFCSQSSHVPPTFGAGTRLEIKR has what recorded EC50, GILZ mRNA, SUDHL-6 cells?
Response line: 0.47
